# target or test system: Fibroblast growth factor 22 (Homo sapiens) (UniProt Q9HCT0)
# Sequence (Q9HCT0 whole entry, looked up): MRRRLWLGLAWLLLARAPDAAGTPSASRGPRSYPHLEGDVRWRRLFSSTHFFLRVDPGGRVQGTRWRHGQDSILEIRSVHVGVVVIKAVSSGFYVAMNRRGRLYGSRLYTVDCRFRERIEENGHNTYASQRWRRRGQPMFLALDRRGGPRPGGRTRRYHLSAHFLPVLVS
# protocol description: FGF22 ligand-induced thermal stabilization – biophysical, thermal shift, cherry-pick, FGF22 synaptogenesis inhibitor project, dose response (AID 687022)
# particulars: recombinant FGF22 thermal shift, SYPRO orange melting
reported metric: AbsAC1 (concentration giving Tm-shift threshold 1.0)

{"columns": ["compound", "target or test system", "data value"],
 "data": [
  ["CC(=O)Nc1cccc(NC(=O)c2ccc3[nH]c(C)c(C)c3c2)c1", "Fibroblast growth factor 22 (Homo sapiens) (UniProt Q9HCT0)", "5.11 µM"],
  ["Cc1cc(C)cc(NC(=O)CN2C(=O)NC(Cc3c[nH]c4ccccc34)C2=O)c1 (centres undefined)", "Fibroblast growth factor 22 (Homo sapiens) (UniProt Q9HCT0)", "13 µM"],
  ["Cc1cccc(OC(C)C(=O)Nc2ccc3c(c2)OCCO3)c1 (centres undefined)", "Fibroblast growth factor 22 (Homo sapiens) (UniProt Q9HCT0)", "15.1 µM"],
  ["COc1ccccc1-c1ccc2c(c1)O[C@@H](CN(C)C(=O)Nc1cccc(F)c1)[C@H](C)CN([C@@H](C)CO)S2(=O)=O", "Fibroblast growth factor 22 (Homo sapiens) (UniProt Q9HCT0)", "20.6 µM"]
]}

---

# target or test system: Fibroblast growth factor 22 (Homo sapiens) (UniProt Q9HCT0)
# protocol description: FGF22 ligand-induced thermal stabilization – biophysical, thermal shift, cherry-pick, FGF22 synaptogenesis inhibitor project, dose response (AID 687022)
# particulars: recombinant FGF22 thermal shift, SYPRO orange melting
Below is a list of entries, each paired with its recorded AbsAC1 (concentration giving Tm-shift threshold 1.0) value.
reported metric: AbsAC1 (concentration giving Tm-shift threshold 1.0)

{"columns": ["smiles notation", "data value"],
 "data": [
  ["O=C(N/N=C/c1ccncc1)c1cccc(N/N=C/c2ccncc2)c1", "8.51 µM"],
  ["C[C@H](CO)N1C[C@H](C)[C@H](CN(C)C(=O)Nc2ccc3c(c2)OCO3)Oc2cc(C3=CCCCC3)ccc2S1(=O)=O", "20.3 µM"],
  ["CC(C)(C)S(=O)(=O)/C(C#N)=N/Nc1ccc(Cl)cc1", "25.7 µM"],
  ["Cc1ccc(S(=O)(=O)NCCC(=O)Nc2ccc(C)c(Cl)c2)cc1C", "4.71 µM"],
  ["CC(=O)Nc1ccc(NC(=O)Nc2ccccc2)cc1", "2.14 µM"],
  ["COc1ccc(C#Cc2ccc3c(c2)O[C@H](CN(C)S(=O)(=O)c2ccccc2F)[C@@H](C)CN([C@@H](C)CO)S3(=O)=O)cc1", "14.7 µM"],
  ["C[C@@H]1CN([C@H](C)CO)S(=O)(=O)c2ccc(C3=CCCC3)cc2O[C@@H]1CN(C)C(=O)Nc1ccc2c(c1)OCO2", "20.2 µM"],
  ["CCCOC(=O)c1ccc(Oc2cn[nH]c2-c2ccc(O)cc2O)cc1", "18.6 µM"]
]}

---

# target or test system: Fibroblast growth factor 22 (Homo sapiens) (UniProt Q9HCT0)
# protocol description: FGF22 ligand-induced thermal stabilization – biophysical, thermal shift, cherry-pick, FGF22 synaptogenesis inhibitor project, dose response (AID 687022)
# particulars: recombinant FGF22 thermal shift, SYPRO orange melting
The source made the active and inactive calls.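 How the source made its calls: active means Fitted curve of melting temperature shift crosses the 1.0 threshold at or below the sample's highest valid tested concentration; inconclusive means Flat fit with activity 30 to 70, or invalid fit; inactive means Opposite direction, flat within 30, or no crossing.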
Labels: yes = active, no = inactive

{"columns": ["compound", "label class"],
 "data": [
  ["O=C(Cc1n[nH]c(=O)[nH]c1=O)N/N=C/c1c(O)ccc2ccccc12", "yes"],
  ["Oc1ccc(/C=N/N=C/c2ccc(O)c(O)c2)cc1O", "yes"],
  ["COC(=O)CN1C(=S)N(c2ccc(F)cc2)C(=O)C1CC(=O)Nc1ccccc1 (stereo unspecified)", "yes"],
  ["O=C(C[C@H]1CC[C@@H]2[C@H](COC[C@H](O)CN2S(=O)(=O)c2cccc(Cl)c2)O1)Nc1ccccc1", "yes"],
  ["C/C=C/c1ccc2c(c1)O[C@@H](CN(C)C(=O)Nc1cccc(F)c1)[C@@H](C)CN([C@@H](C)CO)S2(=O)=O", "yes"],
  ["O=C(NC1CC1)c1cccc(NC(=O)c2cnn(-c3ccccc3)n2)c1", "yes"],
  ["C[C@@H]1CN([C@@H](C)CO)C(=O)c2cc(NC(=O)Nc3ccc(C(F)(F)F)cc3)ccc2O[C@@H]1CN(C)Cc1ccc(C(=O)O)cc1", "yes"],
  ["O=C(N/N=C/c1ccncc1)c1cc2ccccc2o1", "yes"],
  ["Cc1ccccc1-n1c(O)c(/C=N/NC(=O)c2ccccc2O)c(=O)[nH]c1=S", "yes"],
  ["O=S(=O)(O)c1cccc2cccc(Nc3ccccc3)c12", "yes"],
  ["COc1ccc(NC(=O)CN(C)C(=O)c2cn(-c3ccccc3)nc2-c2cccnc2)cc1", "no"],
  ["CO[C@H](CN(C)S(=O)(=O)c1cccc(Cl)c1)[C@H](C)CN([C@H](C)CO)S(=O)(=O)c1cccc(Cl)c1", "yes"],
  ["N#Cc1cccc(NC(=O)c2ccc(S(=O)(=O)N3CCOCC3)cc2)c1", "yes"],
  ["Cc1cccc(S(=O)(=O)N2C[C@@H](O)COC[C@H]3O[C@H](CC(=O)Nc4ccc(-c5ccccc5)cc4)CC[C@@H]32)c1", "yes"],
  ["COc1ccc2c(CC(=O)NNC(=O)c3ccc(O)cc3)coc2c1", "yes"],
  ["O=C(C[C@@H]1CC[C@H]2[C@@H](COC[C@@H](O)CN2S(=O)(=O)c2cccc(F)c2)O1)Nc1ccccc1", "yes"],
  ["Cc1[nH]c2ccccc2c1/C=N/NC(=O)c1cccc(F)c1", "yes"],
  ["CC(C)Oc1ccc(F)cc1-c1cc(C(=O)NCc2cccs2)[nH]n1", "yes"],
  ["COc1ccc([N+](=O)[O-])cc1/C=N/Nc1nn[nH]n1", "yes"],
  ["COc1ccc(N2C(=O)C(CC(=O)Nc3ccccc3)N(Cc3ccc4c(c3)OCO4)C2=O)cc1 (stereo unspecified)", "yes"],
  ["C[C@H](CO)N1C[C@H](C)[C@@H](CN(C)Cc2ccc(C(=O)O)cc2)Oc2cc(/C=C/c3ccccc3)ccc2S1(=O)=O", "no"],
  ["CCOC(=O)N1CCN(C(=O)CCCCCn2c(=S)[nH]c3ccsc3c2=O)CC1", "yes"],
  ["Oc1cc(O)cc(-c2cc3ccc(O)cc3o2)c1", "yes"],
  ["Cc1onc(-c2ccccc2)c1C(=O)Nc1ncc([N+](=O)[O-])s1", "yes"],
  ["Cc1ccc(Cl)cc1N1CCN(C(=O)Cc2c(C(=O)O)[nH]c3ccc(Cl)cc23)CC1", "yes"],
  ["Cc1ccc(NC(=O)c2ccc(OCc3c(C)noc3C)cc2)c(C)c1", "yes"],
  ["COc1cccc(S(=O)(=O)N2C[C@@H](O)COC[C@@H]3O[C@@H](CC(=O)Nc4ccccc4)CC[C@H]32)c1", "yes"],
  ["CC(=O)c1ccc(NC(=O)Nc2cccnc2)cc1", "yes"],
  ["COc1ccc2cc(CCNC(=O)c3cc4ccccc4o3)c(=O)[nH]c2c1", "yes"],
  ["COc1ccc(-c2nc3ccc([N+](=O)[O-])cc3[nH]2)cc1", "yes"],
  ["O=C(CN(Cc1ccccc1)S(=O)(=O)c1ccccc1)N/N=C/c1ccccc1C(=O)O", "yes"]
]}
